Data provenance is patent US20170056486A1.

SYSTEM UNDER TEST: T1, HLA-A*02 (human)
T1 construct: Peptide-receptive MHC monomer made by UV cleavage of a UV-sensitive ligand and captured on streptavidin plates; also called HLA-A*02 MHC class I molecule; peptide-receptive MHC
ASSAY TEXT: UV-exchange ELISA (anti-b2m); yield 20%-49%
Please respond with reported peptide exchange yield for every item in the list.

The binder "SVDSAPAAV" showed peptide exchange yield equal to 20 to 49%

The binder "GLLWQIIKV" showed peptide exchange yield equal to 20 to 49%

The binder "PLWGKVFYL" showed peptide exchange yield equal to 20 to 49%

The binder "KILDLTRVL" showed peptide exchange yield equal to 20 to 49%

The binder "ILDETLENV" showed peptide exchange yield equal to 20 to 49%

The binder "VLLRVLIL" showed peptide exchange yield equal to 20 to 49%

The binder "HLYNNEEQV" showed peptide exchange yield equal to 20 to 49%

The binder "LLYDGKLSSA" showed peptide exchange yield equal to 20 to 49%
